Data provenance: patent US20260007756A1

# assay text: Solubility study in PBS
# Assay type: physicochemical
# assay conditions: aqueous buffer, thermodynamic from solid; PBS (pH 7.2 to 7.4); read-out: Solubility, concentration
attribute measured: solubility at 2 min

In plain terms, CC[C@@H]1C(=O)N(C)c2cnc(Nc3ccc(-c4cn([C@H]5CC[C@@H](NCCOCCC#Cc6cccc7c6CN(C6CCC(=O)NC6=O)C7=O)CC5)nn4)cc3OC)nc2N1C1CCCC1 (stereo partly shown) [CR20274] has a documented solubility at 2 min of < 900 µg/mL

----------
# assay text: Solubility study in PBS
# Assay type: physicochemical
# assay conditions: aqueous buffer, thermodynamic from solid; PBS (pH 7.2 to 7.4); read-out: Solubility, concentration
Numbered stars: 1 amine (or outer) side, 2 acyl side, 3 side chain; on linkers, the order of the positions; unused ones are H or OH. Square brackets hold non-standard residues; d marks the D form. Side chains are listed from the residue outwards. Peptide text beside a SMILES is read from it. * marks the point of attachment. EuK = O=C(O)CC[C@H](NC(=O)N[C@@H](CCCCN*)C(=O)O)C(=O)O; Pteroyl = Nc1nc2ncc(CNc3ccc(C(=O)*)cc3)nc2c(=O)[nH]1; γGlu = O=C(O)[C@H](CCC(=O)[*:2])N[*:1]; X1 = O=C(Cc1ccc(CN[*:1])cc1)[*:2]; Pra = C#CC[C@H](N)C(=O)O; CO = O=C([*:1])[*:2]
attribute measured: solubility (µg/mL)
Response body: numeric value in µg/mL, unit text excluded.

In plain terms, C#CC[C@H](NC(=O)[C@H](CCCCN)NC(=O)[C@H](CC(=O)O)NC(=O)[C@H](CC(=O)O)NC(=O)Cc1ccc(CNC(=O)NCCCC[C@H](NC(=O)N[C@@H](CCC(=O)O)C(=O)O)C(=O)O)cc1)C(=O)N[C@@H](CCCCNC(=O)CC[C@H](NC(=O)c1ccc(NCc2cnc3[nH]c(N)nc(=O)c3n2)cc1)C(=O)O)C(N)=O [CR202W4] ({EuK-CO}-[X1]DDK[Pra]K([γGlu-Pteroyl])-NH2) has a documented solubility of 2800
